System: HSV-2
Experiment: Viral titer from Vero cells pre-treated with oligonucleotide, HSV-2
Type: cell-based, African Green monkey (Vero cells)
Conditions: cells infected with HSV-2; cells pre-treated 10 μg/ml, 30 sec
Procedure: Vero cells, a cell line derived from African Green monkey kidney, were pre-treated with varying concentrations of ISS or non-ISS oligonucleotides for varying times prior to the addition of HSV-1 or HSV-2. […] Viral titers were calculated as a percent of control titer generated by cells not treated with the oligonucleotides. The data are expressed as percent of control titer.
PARAMETER: Viral titer, percent of control titer

Answered examples (3):
5′-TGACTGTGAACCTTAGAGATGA-3′ (chemistry not given here) [SEQ ID NO: 12, non-ISS control oligonucleotide, reference compound] : 129% of control titer
5′-TCGTCGAACGTTCGTTAACGTTCG-3′ (listed as DNA, chemistry not given here) [SEQ ID NO: 11, ISS oligonucleotide] : 136% of control titer
5′-TGACTGTGAACGTTCGAGATGA-3′ [SEQ ID NO: 1] : 101% of control titer

Shift focus to the following entry.
Entry 5′-TGACTGTGAAGGTTAGAGATGA-3′ (chemistry not given here) [SEQ ID NO: 9, reference compound] needs its Viral titer, percent of control titer filled in; supply it.
103% of control titer

====

Attribute: Viral titer, percent of control titer
Tested on: HSV-1
Experiment: Viral titer from Vero cells pre-treated with oligonucleotide, HSV-1
Format: cell-based, African Green monkey (Vero cells)
Details: cells infected with HSV-1; cells pre-treated 10 μg/ml, 30 sec
Procedure: Vero cells, a cell line derived from African Green monkey kidney, were pre-treated with varying concentrations of ISS or non-ISS oligonucleotides for varying times prior to the addition of HSV-1 or HSV-2. […] Viral titers were calculated as a percent of control titer generated by cells not treated with the oligonucleotides. The data are expressed as percent of control titer.

Answered examples (3):
5′-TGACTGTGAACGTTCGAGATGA-3′ [SEQ ID NO: 1] : 100% of control titer
5′-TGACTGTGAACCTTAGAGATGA-3′ (chemistry not given here) [SEQ ID NO: 12, non-ISS control oligonucleotide, reference compound] : 141% of control titer
5′-TCGTCGAACGTTCGTTAACGTTCG-3′ (listed as DNA, chemistry not given here) [SEQ ID NO: 11, ISS oligonucleotide] : 122% of control titer

Shift focus to the following entry.
Entry 5′-TGACTGTGAAGGTTAGAGATGA-3′ (chemistry not given here) [SEQ ID NO: 9, reference compound] needs its Viral titer, percent of control titer filled in; supply it.
96% of control titer

====

Attribute: Viral titer, percent of control titer
Test system: HSV-1
Assay: Viral titer after pre-treating HSV-1 virus with oligonucleotide, Vero cells
Format: cell-based, African Green monkey (Vero cells)
Settings: HSV-1 virus pre-treated 10 minutes with 1 μg/ml
Description: HSV-1 or HSV-2 virus was pre-treated with varying concentrations of ISS or non-ISS oligonucleotides for 10 minutes prior to adding the mixture to plated Vero cells. Oligonucleotides were used at 1 μg/ml or 10 μg/ml. Viral titers were calculated as a percent of control titer generated by cells not treated with the oligonucleotides. The data are expressed as percent of control titer.

5′-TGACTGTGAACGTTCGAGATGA-3′ [SEQ ID NO: 1] : 101% of control titer

Entry 5′-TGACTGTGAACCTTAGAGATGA-3′ (chemistry not given here) [SEQ ID NO: 12, non-ISS control oligonucleotide, reference compound] needs its Viral titer, percent of control titer filled in; supply it.
98% of control titer

Entry 5′-TGACTGTGAAGGTTAGAGATGA-3′ (chemistry not given here) [SEQ ID NO: 9, reference compound] needs its Viral titer, percent of control titer filled in; supply it.
102% of control titer

Entry 5′-TCGTCGAACGTTCGTTAACGTTCG-3′ (listed as DNA, chemistry not given here) [SEQ ID NO: 11, ISS oligonucleotide] needs its Viral titer, percent of control titer filled in; supply it.
100% of control titer

Data origin, for the record: patent US20050059626A1
